Test: Kinetics of conversion of HepDirect-carbonate prodrugs to nucleoside monophosphates by human liver microsomes
Assay type: in vitro ADME
Details: activation to NMP, Lineweaver-Burke plot
Procedure: The kinetics of activation of prodrug analogues to NMP were evaluated in the microsomal fraction of human liver. Human liver microsomes were purchased from In Vitro Technologies. […] NMP was detected by using MS/MS mode (M^−/78.8) and quantified based on comparison to a standard of lamivudine monophosphate. Kinetic parameters were determined from a Lineweaver-Burke plot of the data with use of SigmaPlot 9.0 software.
Measure: Km (µM)

[[record]]
compound = "C[C@@]12OC(=O)O[C@@H]1[C@@H](COP1(=O)OCC[C@@H](c3ccncc3)O1)O[C@H]2n1cnc2c(N)ncnc21 (some centres unmarked) [Compound 30.1]"
result_unit = "µM"
readout_number = 64

[[record]]
compound = "CC1(C)C[C@@H](c2cccc(F)c2F)OP(=O)(OC[C@H]2O[C@@H](n3cnc4c(N)ncnc43)[C@]3(C)OC(=O)O[C@H]23)O1 (some centres unmarked) [Compound 30.10]"
result_unit = "µM"
readout_number = 44.5

